# Test Target: Alpha-2A adrenergic receptor (Homo sapiens, UniProt P08913)
# Sequence (P08913 whole entry): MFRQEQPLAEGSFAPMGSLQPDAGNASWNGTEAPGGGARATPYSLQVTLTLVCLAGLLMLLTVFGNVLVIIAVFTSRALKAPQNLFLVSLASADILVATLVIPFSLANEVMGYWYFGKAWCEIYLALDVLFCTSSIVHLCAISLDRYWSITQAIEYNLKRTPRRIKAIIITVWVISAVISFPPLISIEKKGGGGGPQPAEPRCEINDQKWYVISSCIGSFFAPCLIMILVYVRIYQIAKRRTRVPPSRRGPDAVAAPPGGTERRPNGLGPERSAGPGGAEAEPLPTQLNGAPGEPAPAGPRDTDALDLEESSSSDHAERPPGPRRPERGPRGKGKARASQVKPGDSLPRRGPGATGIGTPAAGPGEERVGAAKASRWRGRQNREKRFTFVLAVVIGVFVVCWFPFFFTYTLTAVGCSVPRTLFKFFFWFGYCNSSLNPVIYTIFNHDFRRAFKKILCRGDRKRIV
Measurement Kind: IC50

Compound String: Cl.Clc1cccc(Nc2nc(Cc3ccccc3)nc3c2CCNCC3)c1
Result: > 10 µM
//
Compound String: c1ccc(Cc2nc3c(c(Nc4ccccc4)n2)CCNCC3)cc1
Result: > 10 µM
